These entries and their values trace back to the supplement of paper PMC9170038.

System: K4 kissing-loop RNA reporter;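 note: bound reporter read as fluorescence of individual clusters on recovered sequencing chips by microscopy, with normalized cluster intensities fitted with a binding model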
Test: apparent KD of K4 kissing-loop reporter; higher = weaker reporter binding
Details: Eterna round: R107; input ligand: FMN 200 uM
# apparent KD of K4 kissing-loop reporter values compiled below

[
  {
    "sequence content": "CCAAUCUGUUACGAUACCAGUCAAAGAUAUUUGAUCAAUACCCUCACCGAGUGAUGUUCGGACCCUUGGCAGCGUCUGGGAUAGG [ceevmullin]",
    "measurement unit": "nM",
    "apparent KD of K4 kissing-loop reporter": 228
  },
  {
    "sequence content": "AUCGAUAUCAGAGGAUAUGCUUAAUAGAUUUAUUAUUAUCUAUUAUGCAGUGAUGUUGCAUAUUUUGCAGAAGGCUGAUUUCGAA [JR_SSFMNB_Sub019]",
    "measurement unit": "nM",
    "apparent KD of K4 kissing-loop reporter": 124
  },
  {
    "sequence content": "UAGUGAUGCUAUGUUAGGUUUUUUAGGGAAGGAGCGCCAAAGAAGGCAGGUAGGUCGCCCUAUAUUCCCAGUGAUGUUGGGUAUU [Skye_Ex_AA]",
    "measurement unit": "nM",
    "apparent KD of K4 kissing-loop reporter": 64.8
  },
  {
    "sequence content": "UUAUAUCUCUGACUUUCACUUUGCGUAUCUGAGGAUAUCUGAAUUCAGAGAAGGCAGUGAUGUUGCUUUGCUGUGUGUCUGAGAA [AK2 Exc FMN A]",
    "measurement unit": "nM",
    "apparent KD of K4 kissing-loop reporter": 702
  },
  {
    "sequence content": "UCCUCGAAUCGACCUCGAAAGAGGAUGGAUACCAGUCUUGAUAAAGACCCUUGGCAGCCAGUGAUGUUGGAACGAGGUAAAUAAA [#SwitchBubble 19 #K4Late]",
    "measurement unit": "nM",
    "apparent KD of K4 kissing-loop reporter": 531
  },
  {
    "sequence content": "GGUGACAACCAGGAGUGAUGUAUAGAAUAGCGAGGACCGGUACGGCCGCCACUCGUGAAGAGAAAGGAGUGAUGUUCCGUAAUGG [Kazoo C3]",
    "measurement unit": "nM",
    "apparent KD of K4 kissing-loop reporter": 129
  }
]
